- METHOD NOTES: log P by HPLC on reversed-phase C18 columns (OECD Guideline 117);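 for logP[b]: method b is the neutral LC-MS method at pH 7.8 with ammonium hydrogencarbonate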
- Type: physicochemical
- RUN CONDITIONS: method [b]
Kindly supply the reported logP[b] values for the records listed here.

Please give logP[b], item by item, for the list that follows.
1. CN(C(=O)c1cnc([S+]([O-])c2ccc(C(C)(C)C)cc2)n1C)c1cccnc1 (centres unmarked) [I-A-75]
2. CN(C(=O)c1cnc(SCc2ccco2)n1C)c1cccnc1 [I-A-120]
3. CN(C(=O)c1cnc(S(C)(=O)=O)n1C)c1cccnc1 [I-A-8]
4. COC(=O)C(C)(C)NC(=O)CSc1ncc(C(=O)N(C)c2cccnc2)n1C [I-A-133]
5. CN(C(=O)c1cnc(Sc2ccc(Cl)c(C(F)(F)F)c2)n1C)c1cccnc1 [I-A-64]
6. CN(C)C(=O)c1cccc([S+]([O-])c2ncc(C(=O)N(C)c3cccnc3)n2C)c1 (centres unmarked) [I-A-91]

2.19
1.55
0.67
1.22
2.71
0.96

---

Give log P[a] for every item shown.
- METHOD NOTES: log P by HPLC on reversed-phase C18 columns (OECD Guideline 117)
- Type: physicochemical
- RUN CONDITIONS: acidic range, pH 2.7, 0.1% aqueous formic acid / acetonitrile
Numbers only.

In [3]: df
Out[3]:
                               molecule  test_value
0  CN(C(=O)c1cnc(Br)n1C)c1cccnc1 [XI-1]        0.65

State the recorded log P[a] for every item in the following list.
1. Cc1cc(C)nc(Sc2ncc(C(=O)O)n2C)n1 [IV-1]
2. Cc1cc(C)nc(Sc2ncc(C(=O)N(C)c3cccnc3)n2C)n1 [I-A-1]
3. COC(=O)c1cnc(Sc2nc(C)cc(C)n2)n1C [VIII-1]
4. COC(=O)c1cnc(SCC2CC2)n1C [VIII-2]

1. 0.81
2. 1.26
3. 1.78
4. 2.06

Provide measured log P[a] value, entry: Cn1c(C(=O)O)cnc1SCC1CC1 [IV-2]
0.62

---

Could you please report measured logP[b] for the items listed next?
- METHOD NOTES: log P by HPLC on reversed-phase C18 columns (OECD Guideline 117);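 for logP[b]: method b is the neutral LC-MS method at pH 7.8 with ammonium hydrogencarbonate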
- Format: physicochemical
- RUN CONDITIONS: method [b]
Answers are plain numbers.

Consider the reported logP[b] for these molecules:
In [3]: df
Out[3]:
                                   molecule  endpoint_label  test_value
0  CN(C(=O)c1cnc(S(=O)(=O)c2ccc(Cl)c(C(F)(F)F)c2)n1C)c1cccnc1 [I-A-80]         logP[b]        2.72
1  CN(C(=O)c1cnc([S+]([O-])c2ncccn2)n1C)c1cccnc1 (centres unmarked) [I-A-97]         logP[b]        0.48
2  Cc1cccc(Sc2ncc(C(=O)N(C)c3cccnc3)n2C)n1 [I-A-108]         logP[b]        1.43

Hi, could you look up logP[b] for each item in my list?
1. COc1ccc([S+]([O-])c2ncc(C(=O)N(C)c3cccnc3)n2C)cc1 (centres unmarked) [I-A-93]
2. CCCCCSc1ncc(C(=O)N(C)c2cccnc2)n1C [I-A-6]
3. COc1cccc(F)c1CSc1ncc(C(=O)N(C)c2cccnc2)n1C [I-A-124]
4. CCOC(=O)CSc1ncc(C(=O)N(C)c2cccnc2)n1C [I-A-24]
5. CN(C(=O)c1cnc(SCc2ccccc2)n1C)c1cccnc1 [I-A-7]

[1.28, 2.33, 2.03, 1.34, 1.91]

I would be grateful if you could provide logP[b] for each of the following entries.
1. CN(C(=O)c1cnc(Sc2ccc(Cl)nc2)n1C)c1cccnc1 [I-A-70]
2. COc1ccc(Sc2ncc(C(=O)N(C)c3cccnc3)n2C)cc1 [I-A-58]
3. CN(C(=O)c1cnc(Sc2nnc(C(F)(F)F)n2C)n1C)c1cccnc1 [I-A-138]
4. CN(C(=O)c1cnc(SCc2c(Cl)cccc2C(F)(F)F)n1C)c1cccnc1 [I-A-126]
5. CN(C(=O)c1cnc(S(=O)(=O)c2ccc([N+](=O)[O-])cc2)n1C)c1cccnc1 [I-A-90]
6. Cc1cc([N+](=O)[O-])nn1CSc1ncc(C(=O)N(C)c2cccnc2)n1C [I-A-131]

[1.52, 1.79, 1.26, 2.54, 1.68, 1.40]

Working through the 6 molecules below one at a time, give logP[b] for each.
1. CCS(=O)(=O)c1ncc(C(=O)N(C)c2cccnc2)n1C [I-A-40]
2. CN(C(=O)c1cnc(SCc2c(F)cccc2F)n1C)c1cccnc1 [I-A-123]
3. CN(C(=O)c1cnc(Sc2ccccc2F)n1C)c1cccnc1 [I-A-71]
4. CN(C(=O)c1cnc(SCc2cnccn2)n1C)c1cccnc1 [I-A-113]
5. CN(C(=O)c1cnc(Sc2cccc([N+](=O)[O-])c2)n1C)c1cccnc1 [I-A-68]
6. CN(C(=O)c1cnc(SCc2ccc(Cl)c(Cl)c2)n1C)c1cccnc1 [I-A-121]

1: 0.88; 2: 1.92; 3: 1.78; 4: 0.93; 5: 1.77; 6: 2.62

---

Exercise: for every item that follows, state its recorded logP[a].
- METHOD NOTES: log P by HPLC on reversed-phase C18 columns (OECD Guideline 117)
- Format: physicochemical
- RUN CONDITIONS: method [a]
Give bare numbers.

>>> print(df.to_string())
                                   compound  test_value
0  CN(C(=O)c1cnc(S(=O)(=O)c2ncccn2)n1C)c1cccnc1        0.66
1  CN(C(=O)c1cnc(Sc2nccc(C(F)(F)F)n2)n1C)c1cccnc1        1.58
2     CN(C(=O)c1cnc(SCc2ncccn2)n1C)c1cccnc1        0.56
3         CCOCCSc1ncc(C(=O)N(C)c2cccnc2)n1C        1.04
4  CCn1c(Sc2ncc(C(=O)N(C)c3cccnc3)n2C)nnc1C(F)(F)F        1.41

Give logP[a] for each of the items listed below.
1. CN(C(=O)c1c(Cl)nc(Sc2ncccn2)n1C)c1cccnc1
2. CN(C(=O)c1cnc(SCc2ccc(Cl)nc2)n1C)c1cccnc1
3. CN(C(=O)c1cnc(S(=O)(=O)c2ccccn2)n1C)c1cccnc1
4. CNC(=O)CS(=O)(=O)c1ncc(C(=O)N(C)c2cccnc2)n1C
5. CN(C(=O)c1cnc(SCCCF)n1C)c1cccnc1
6. Cc1cccc(C)c1CSc1ncc(C(=O)N(C)c2cccnc2)n1C

1. 1.24
2. 1.37
3. 1.01
4. 0.35
5. 1.11
6. 2.32

Batch request: logP[a] per item, same order as input.
1. CN(C(=O)c1cnc(Sc2ncc(F)cn2)n1C)c1cccnc1
2. Cc1nc(Sc2ncc(C(=O)N(C)c3cccnc3)n2C)oc1C
3. CN(C(=O)c1cnc(Sc2ccccc2F)n1C)c1cccnc1
4. CN(C(=O)c1cnc(Sc2nc3ccccc3n2C)n1C)c1cccnc1
5. CN(C(=O)c1cnc(Sc2ccc(Cl)cc2)n1C)c1cccnc1
6. CC(C)Sc1ncc(C(=O)N(C)c2cccnc2)n1C
7. Cc1ccc(Sc2ncc(C(=O)N(C)c3cccnc3)n2C)cc1
8. CN(C(=O)c1cnc(SCC(F)(F)F)n1C)c1cccnc1

[1.04, 1.31, 1.68, 1.27, 2.02, 1.23, 1.89, 1.41]

Hello, I would appreciate it if you could give logP[a] for each entry below.
1. CN(C(=O)c1cnc(SCC(F)(F)C(F)(F)Cl)n1C)c1cccnc1
2. Cc1ccnc(Sc2ncc(C(=O)N(C)c3cccnc3)n2C)n1

1: 2.09; 2: 1.00

For every item in the list below, what is its measured logP[a]?
1. CN(C(=O)c1cnc(S(=O)(=O)c2cc(Cl)cc(Cl)c2)n1C)c1cccnc1
2. CN(C(=O)c1cnc(S(=O)(=O)c2ccc(C(C)(C)C)cc2)n1C)c1cccnc1
3. CN(C)c1ccc(Sc2ncc(C(=O)N(C)c3cccnc3)n2C)cc1
4. CN(C(=O)c1cnc(SC2CCOCC2)n1C)c1cccnc1
5. CN(C(=O)c1cnc([S+]([O-])c2ccc([N+](=O)[O-])cc2)n1C)c1cccnc1 (stereo not drawn)
6. CN(C(=O)c1cnc(Sc2ncccc2C(F)(F)F)n1C)c1cccnc1
7. CN(C(=O)c1cnc(SCC(=O)C2CC2)n1C)c1cccnc1
8. CN(C(=O)c1cnc(S(=O)(=O)c2cccc(Cl)c2)n1C)c1cccnc1

[2.37, 2.53, 1.55, 0.90, 1.20, 1.77, 0.97, 1.81]

Lab note: each compound below needs its logP[a] filled in.
1. CN(C)C(=O)c1cccc([S+]([O-])c2ncc(C(=O)N(C)c3cccnc3)n2C)c1 (stereo not drawn)
2. CN(C(=O)c1cnc(S(=O)(=O)c2ccc(F)cc2)n1C)c1cccnc1
3. CN(C(=O)c1cnc(SCc2c(Cl)cccc2C(F)(F)F)n1C)c1cccnc1
4. CCSc1ncc(C(=O)N(C)c2cccnc2)n1C
5. Cc1cc([N+](=O)[O-])nn1CSc1ncc(C(=O)N(C)c2cccnc2)n1C
6. COc1ccc([S+]([O-])c2ncc(C(=O)N(C)c3cccnc3)n2C)cc1 (stereo not drawn)
7. CC(C)=CCSc1ncc(C(=O)N(C)c2cccnc2)n1C

[0.76, 1.53, 2.47, 0.95, 1.28, 1.12, 1.61]

Look at each compound and report its logP[a].
1. COc1cccc(F)c1CSc1ncc(C(=O)N(C)c2cccnc2)n1C
2. CN(C(=O)c1cnc(Sc2ncc(C(F)(F)F)cn2)n1C)c1cccnc1
3. CN(C(=O)c1cnc([S+]([O-])c2cccc(Cl)c2)n1C)c1cccnc1 (stereo not drawn)

1: 1.72; 2: 1.64; 3: 1.45

Where do the numbers come from? From patent US10368545B2.
